Data provenance is patent US20120021972A1.

- TGT: human GLP-1 receptor (human, UniProt P43220 24-463)
- Sequence (P43220 24-463): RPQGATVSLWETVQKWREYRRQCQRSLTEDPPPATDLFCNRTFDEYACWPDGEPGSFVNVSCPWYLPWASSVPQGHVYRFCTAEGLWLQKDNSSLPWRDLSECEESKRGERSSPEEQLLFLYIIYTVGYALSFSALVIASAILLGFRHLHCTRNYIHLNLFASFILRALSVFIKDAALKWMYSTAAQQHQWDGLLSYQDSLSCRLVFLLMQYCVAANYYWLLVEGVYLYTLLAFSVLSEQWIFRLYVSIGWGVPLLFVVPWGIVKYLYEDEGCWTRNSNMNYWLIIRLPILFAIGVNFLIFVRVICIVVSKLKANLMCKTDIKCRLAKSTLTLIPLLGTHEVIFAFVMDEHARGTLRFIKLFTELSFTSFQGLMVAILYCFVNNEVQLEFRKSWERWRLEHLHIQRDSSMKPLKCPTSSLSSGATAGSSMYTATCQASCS
- ASSAY NAME: cell-based or functional assay
Starred links: 1 amine or outer side, 2 acyl side, 3 side chain; linkers in the order of their positions; H or OH if unused. Non-standard residues stand in square brackets, D forms with d. No end group written: not given here. ACPP = 2-amino-5-(3-chlorophenyl)pentanoic acid, O=C([C@H](CCCc1cccc(Cl)c1)N[*:1])[*:2]; 2CF3‑APPA = 2-amino-5-(2-(trifluoromethyl)phenyl)pentanoic acid; Bip(2'-Et-4'-OMe) = CCc1cc(OC)ccc1-c1ccc(C[C@H](N)C(=O)O)cc1; Leu(5,5,5,5',5',5'-F6) = N[C@@H](CC(C(F)(F)F)C(F)(F)F)C(=O)O; hhPhe = N[C@@H](CCCc1ccccc1)C(=O)O; αMeF = C[C@](N)(Cc1ccccc1)C(=O)O; Aib = CC(C)(N)C(=O)O
MEASURED ENDPOINT: cAMP release, % activity, 10 nM (%)

H[Aib][Leu(5,5,5,5',5',5'-F6)]GT[αMeF]TSD[Bip(2'-Et-4'-OMe)][hhPhe] [Seq. ID. No. 230: H-Aib-(Hfl)-GT-(α-Me-Phe)-TSD-Bip(OMe)-(APPA)] :: 99
H[Aib]QGTFTSD[Bip(2'-Et-4'-OMe)][ACPP] [Seq. ID. No. 19: H-Aib-QGTFTSD-Bip(OMe)-(ACPP)] :: 99
HSQGTFTSD[Bip(2'-Et-4'-OMe)][2CF3‑APPA] [Seq. ID. No. 47: HSQGTFTSD-Bip(OMe)-(2CF3-APPA)] :: 89
